test system: Pseudomonas aeruginosa; assay: Antibioflim activity in Pseudomonas aeruginosa PA14 after 24 hrs by general static inhibition assay; format: functional, organism-based; conditions: Pseudomonas aeruginosa, PA14, 24 h; read-out: IC50
Recorded IC50 values for a group of compounds are listed next.
Number in µM, nothing else.

Chemical String	Experimental System	IC50, µM
CCCCCCNC(=O)NCCCc1c[nH]c(N)n1.Cl	Pseudomonas aeruginosa	35.4
CCCCCCS(=O)(=O)NCCCc1c[nH]c(N)n1.Cl	Pseudomonas aeruginosa	10.1
Cc1ccc(F)cc1NC(=O)NCCCc1c[nH]c(N)n1.Cl	Pseudomonas aeruginosa	46.7
Cl.Nc1nc(CCCNC(=O)Nc2ccc(F)c(Cl)c2)c[nH]1	Pseudomonas aeruginosa	25.7
Nc1ncc(/C=C/CNC(=O)c2cc(Br)c(Br)[nH]2)[nH]1	Pseudomonas aeruginosa	160
Cl.Nc1nc(CCCNS(=O)(=O)c2ccc(Br)cc2)c[nH]1	Pseudomonas aeruginosa	19.4

Prompt line: Given the entry Cc1cc(C)cc(S(=O)(=O)NCCCc2c[nH]c(N)n2)c1.Cl , what IC50 was observed with Pseudomonas aeruginosa?
Response line: 46.2
